- Test system: HepG2
measured_property: IC50 (uM/ml)
Respond numerically; units are uM/ml and should not be typed.

The examples below pair each entry with its known result.
| compound | IC50 [uM/ml] |
| --- | --- |
| COc1cc(/C=C/C(=O)C2=C(/C=C/c3ccc(O)c(OC)c3)NC(=O)NC2c2ccc(O)c(OC)c2)ccc1O (stereo not drawn) | 25 |
| COc1cc(/C=C/C(=O)C2=C(/C=C/c3ccc(O)c(OC)c3)NC(=S)NC2c2ccc([N+](=O)[O-])cc2)ccc1O (stereo not drawn) | 50 |
| COc1cc(/C=C/C(=O)C2=C(/C=C/c3ccc(O)c(OC)c3)NC(=O)NC2c2ccc([N+](=O)[O-])cc2)ccc1O (stereo not drawn) | 100 |

# COc1cc(/C=C/C(=O)C2=C(/C=C/c3ccc(O)c(OC)c3)NC(=O)NC2c2ccccc2)ccc1O (stereo not drawn) with HepG2: IC50 is 50

# COc1cc(/C=C/C(=O)C2=C(/C=C/c3ccc(O)c(OC)c3)NC(=S)NC2c2ccc(Cl)cc2)ccc1O (stereo not drawn) with HepG2: IC50 is 100

Cited source: ChEMBL document CHEMBL2016493
